This collection of values is drawn from patent US20240190886A1.

- Tested system: SMARCA4 (Homo sapiens)
- Construct: SMARCA2-HiBiT knock-in Hela monoclonal cell (CS302366) and SMARCA4-HiBiT knock-in Hela monoclonal cell (CS3023226) were purchased from Promega; host or cells: HeLa SMARCA4-HiBiT knock-in monoclonal cells (heterozygous knock-in)
- Sequence (P51532 whole entry): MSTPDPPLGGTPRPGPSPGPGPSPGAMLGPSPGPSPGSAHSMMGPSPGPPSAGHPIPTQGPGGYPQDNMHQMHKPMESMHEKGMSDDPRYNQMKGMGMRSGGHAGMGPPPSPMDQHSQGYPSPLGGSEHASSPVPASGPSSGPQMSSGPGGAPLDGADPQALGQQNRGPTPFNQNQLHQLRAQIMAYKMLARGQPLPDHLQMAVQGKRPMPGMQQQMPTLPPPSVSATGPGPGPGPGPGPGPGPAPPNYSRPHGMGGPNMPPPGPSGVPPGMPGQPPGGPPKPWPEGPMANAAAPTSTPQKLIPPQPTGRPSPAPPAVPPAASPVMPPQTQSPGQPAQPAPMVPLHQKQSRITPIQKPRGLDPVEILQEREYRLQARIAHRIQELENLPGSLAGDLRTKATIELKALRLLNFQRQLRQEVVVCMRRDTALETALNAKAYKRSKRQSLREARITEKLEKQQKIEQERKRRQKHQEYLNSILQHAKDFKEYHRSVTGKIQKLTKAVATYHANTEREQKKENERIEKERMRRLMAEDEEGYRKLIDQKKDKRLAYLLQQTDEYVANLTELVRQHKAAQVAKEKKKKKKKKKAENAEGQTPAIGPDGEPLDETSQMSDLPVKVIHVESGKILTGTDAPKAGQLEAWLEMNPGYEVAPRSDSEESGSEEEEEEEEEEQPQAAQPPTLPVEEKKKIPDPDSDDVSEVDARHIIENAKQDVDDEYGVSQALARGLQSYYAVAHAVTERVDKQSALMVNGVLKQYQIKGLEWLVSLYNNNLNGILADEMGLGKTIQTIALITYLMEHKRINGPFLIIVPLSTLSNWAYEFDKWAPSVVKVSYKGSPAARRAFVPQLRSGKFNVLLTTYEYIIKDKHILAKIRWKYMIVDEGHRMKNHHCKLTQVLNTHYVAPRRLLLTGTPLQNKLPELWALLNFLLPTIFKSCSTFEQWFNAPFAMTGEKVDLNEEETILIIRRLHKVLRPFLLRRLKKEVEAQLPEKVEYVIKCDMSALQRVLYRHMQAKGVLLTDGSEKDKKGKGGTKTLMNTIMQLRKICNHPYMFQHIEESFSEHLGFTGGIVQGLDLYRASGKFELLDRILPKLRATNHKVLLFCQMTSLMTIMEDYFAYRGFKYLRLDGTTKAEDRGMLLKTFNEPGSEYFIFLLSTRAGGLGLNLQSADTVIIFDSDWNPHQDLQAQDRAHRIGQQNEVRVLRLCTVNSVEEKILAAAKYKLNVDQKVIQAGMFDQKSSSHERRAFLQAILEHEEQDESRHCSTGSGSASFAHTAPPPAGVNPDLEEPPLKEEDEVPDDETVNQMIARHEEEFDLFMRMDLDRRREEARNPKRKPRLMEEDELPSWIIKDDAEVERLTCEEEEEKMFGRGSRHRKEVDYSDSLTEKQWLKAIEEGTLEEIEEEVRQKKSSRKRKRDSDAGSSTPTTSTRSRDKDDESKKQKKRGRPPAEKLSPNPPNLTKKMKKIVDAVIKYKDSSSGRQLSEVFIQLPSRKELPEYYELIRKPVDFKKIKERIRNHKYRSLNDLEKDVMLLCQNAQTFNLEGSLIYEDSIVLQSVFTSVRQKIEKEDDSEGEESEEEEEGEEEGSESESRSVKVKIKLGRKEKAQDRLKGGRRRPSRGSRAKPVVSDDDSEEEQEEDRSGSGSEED
- Procedure summary: SMARCA4 HiBiT degradation assay in HeLa cells
- Format: cell-based
- Condition summary: 18 hours incubation, Nano-Glo HiBiT Lytic detection
Reported Dmax is given for each of the following compounds.
Measurement label: Dmax

{"Compound": "C[C@@H]1CN(CC2CCN(c3ccc4c(=O)n(C5CCC(=O)NC5=O)ncc4c3)CC2)C[C@H](C)N1C(=O)N1CCN2c3cc(-c4ccccc4O)nnc3NC[C@H]2C1 (stereo partly drawn) [Example 3]", "Tested system": "SMARCA4 (Homo sapiens)", "Assay value": "< 50%"}
{"Compound": "Cn1nc(N2CCC(=O)NC2=O)c2ccc(N3CCC(CN4C[C@@H]5[C@H](C4)[C@H]5CN4CCN5c6cc(-c7ccccc7O)nnc6NC[C@H]5C4)CC3)cc21 [Example 8]", "Tested system": "SMARCA4 (Homo sapiens)", "Assay value": "50 to 75%"}
{"Compound": "CC[C@]12CNc3nnc(-c4ccccc4O)cc3N1C[C@H](Oc1ccc(CN3CCN(c4ccc(NC5CCC(=O)NC5=O)cc4F)CC3)cn1)C2 (stereo partly drawn) [Example 11]", "Tested system": "SMARCA4 (Homo sapiens)", "Assay value": "> 75%"}
